The origin of these recorded values is PubChem BioAssay (NCATS).

- assay-name: Stat Signaling Pathway (AID 446);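 note: ME-180 cervical cancer cells given 40 pM IL-6 alongside compound; SIE-controlled beta-lactamase reporter measured as 460/530 nm FRET emission ratio; % is set by controls: 0 for no effect and ±100 for the full control effect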
- particulars: ME-180 (cervical carcinoma) SIE beta-lactamase reporter, IL-6 stimulated, 5 h; at 7.69 µM (top of the series) unless noted
Records with an inconclusive call do not appear. Calls of active or inactive are those of the source. Calls come from the whole dose curve; as a rule, active = well fitted curve in either direction with a large enough effect (not every such curve was filed as active); inconclusive = small, poorly fitted or top-dose-only effect, or another doubt; inactive = flat fitted curve, though single readings scatter.
metric: activity, negative = inhibition

smiles_representation=COCCn1c(=O)c(-c2ccc(Cl)cc2)nc2cnc(Oc3ccc(OC)cc3)nc21 val="-2.62% (inactive)"
smiles_representation=O=C(c1ccncc1)N1CCC2(CCCN(c3ccncc3)C2)CC1 val="-4.53% (inactive)"
smiles_representation=CN1CCN(c2ncc3nc(-c4cccc(C#N)c4)c(=O)n(C)c3n2)CC1 val="-0.0628% (inactive)"
smiles_representation=CN(C)Cc1ccccc1-c1nccc(N(C)Cc2ccco2)n1 val="0.0679% (inactive)"
smiles_representation=COc1ccc2[nH]cc(CCNc3ccnc(-c4ccccc4C(F)(F)F)n3)c2c1 val="-14.8% (inactive)"
smiles_representation=Cc1cnc(CNc2nc(-c3ccc(C(=O)N(C)C)cc3)nc3ccccc23)cn1 val="-7.91% (inactive)"
smiles_representation=C[C@@H](C(=O)O)c1ccc(C(=O)c2cccs2)cc1 val="1.29% [at 17.2 µM] (inactive)"

* * *

- assay-name: qHTS Assay for Lipid Storage Modulators (AID 1519); note: % is set by controls: 0 for no effect and ±100 for the full control effect
- particulars: Drosophila S3 cells, BODIPY lipid droplet/cell ratio, laser cytometry; at 57.5 µM (top of the series); cells loaded with oleic acid
Records with an inconclusive call do not appear.
metric: activity change, negative = inhibition (%)

compound=Cc1noc(C)c1C(=O)N1CCC2(CCCN(c3ccncc3)C2)CC1 metric="activity change, negative = inhibition" display_unit=% val=5.44
compound=COc1ccc(NC(=O)N2CC[C@@]3(CCCN(C(=O)c4ccco4)C3)C2)cc1 metric="activity change, negative = inhibition" display_unit=% val=2.86
compound=COc1ccccc1CN1CCCC2(CCN(C(=O)c3cccc(F)c3)CC2)C1 metric="activity change, negative = inhibition" display_unit=% val=0.576
compound=COc1ccccc1CN1CC[C@@]2(CCCN(S(=O)(=O)c3ccccc3)C2)C1 metric="activity change, negative = inhibition" display_unit=% val=6.22
compound=COCC(=O)N1CCC2(CCN(Cc3ccncc3)CC2)CC1 metric="activity change, negative = inhibition" display_unit=% val=3.65
compound=COc1ccccc1CNc1ncnc2ccc(-c3ccccc3C#N)cc12 metric="activity change, negative = inhibition" display_unit=% val=-1.18
compound=CCCCCC/C=C\CCCCCCCc1cccc(O)c1C(=O)O metric="activity change, negative = inhibition" display_unit=% val=8.36
compound=CC(=O)N1CCC2(CCCN(Cc3ccccc3)C2)CC1 metric="activity change, negative = inhibition" display_unit=% val=2.49
compound=CS(=O)(=O)Nc1cccc(-c2ccc3ncnc(Nc4ccc(F)cc4)c3c2)c1 metric="activity change, negative = inhibition" display_unit=% val=2.96
compound=CS(=O)(=O)N1CCC2(CCCN(C(c3ccccc3)c3ccccc3)C2)CC1 metric="activity change, negative = inhibition" display_unit=% val=2.84
compound=Cc1noc(C)c1C(=O)N1CCC2(CCCN(C(=O)Nc3ccccc3)C2)CC1 metric="activity change, negative = inhibition" display_unit=% val=2.45
compound=Cn1cccc1C(=O)N1CCC2(CC1)CCN(c1ccncc1)CC2 metric="activity change, negative = inhibition" display_unit=% val=1.02
compound=COc1cc(O)c(C(=O)/C=C/c2ccc(OC)c(O)c2)c(OC)c1 metric="activity change, negative = inhibition" display_unit=% val=-24.7
compound=Cc1noc(C)c1-c1nccc(N2CCNCC2)n1 metric="activity change, negative = inhibition" display_unit=% val=6.06
compound=CC(=O)N1CCC2(CC1)CN(c1cccc(-c3ccccc3)c1)C2 metric="activity change, negative = inhibition" display_unit=% val=6.04
compound=COc1ccc(CNc2ncnc3ccc(-c4ccc(C(=O)N(C)C)cc4)cc23)c(OC)c1 metric="activity change, negative = inhibition" display_unit=% val=1.13
compound=O=C(c1ccncc1)N1CCC2(CC1)CN(Cc1cc(C(F)(F)F)cc(C(F)(F)F)c1)C2 metric="activity change, negative = inhibition" display_unit=% val=0.924
compound=CS(=O)(=O)Nc1cccc(-c2nc(N3CCOCC3)c3ccccc3n2)c1 metric="activity change, negative = inhibition" display_unit=% val=2.88
compound=COc1ncc2nc(-c3ccccc3)c(=O)n(C[C@H]3CCCO3)c2n1 metric="activity change, negative = inhibition" display_unit=% val=1.51
compound=COCCn1c(=O)c(-c2ccccc2)nc2cnc(N3CCN(C)CC3)nc21 metric="activity change, negative = inhibition" display_unit=% val=3.96
compound=O=C(c1cc(C(F)(F)F)cc(C(F)(F)F)c1)N1CCC[C@@]2(CCN(c3ccncc3)C2)C1 metric="activity change, negative = inhibition" display_unit=% val=1.83
compound=COc1ccc(Oc2ncc3nc(-c4ccc(F)cc4)c(=O)n(C)c3n2)cc1 metric="activity change, negative = inhibition" display_unit=% val=4.46
compound=COc1ccccc1CNc1ncncc1-c1ccc(N(C)C)cc1 metric="activity change, negative = inhibition" display_unit=% val=7.79
compound=c1ccc(C(c2ccccc2)N2CC3(CCNCC3)C2)cc1 metric="activity change, negative = inhibition" display_unit=% val=0.527
compound=COc1cc(C)c(C(=O)Oc2cc(C)c(C(=O)O)c(O)c2C)c(OC)c1C metric="activity change, negative = inhibition" display_unit=% val=7.39
compound=CC(C)CN1CCCC2(CCN(C(=O)c3cc(C(F)(F)F)cc(C(F)(F)F)c3)CC2)C1 metric="activity change, negative = inhibition" display_unit=% val=2.29
compound=COCC(=O)N1CCC[C@@]2(CCN(C(c3ccccc3)c3ccccc3)C2)C1 metric="activity change, negative = inhibition" display_unit=% val=-13.8
compound=c1ccc(-c2cccc(N3CCCC4(CCNCC4)C3)c2)cc1 metric="activity change, negative = inhibition" display_unit=% val=2.43
compound=COc1ccc(NC(=O)N2CCCC3(CCN(S(=O)(=O)c4ccccc4)CC3)C2)cc1 metric="activity change, negative = inhibition" display_unit=% val=2.57
compound=COCCn1c(=O)c(-c2ccccc2)nc2cnc(N(C)C)nc21 metric="activity change, negative = inhibition" display_unit=% val=6.53
compound=O=C(c1cccc(F)c1)N1CCC[C@@]2(CCN(c3ccccn3)C2)C1 metric="activity change, negative = inhibition" display_unit=% val=6.88
compound=N#Cc1cccc(NC(=O)N2CCCC3(CCN(C(=O)c4ccco4)CC3)C2)c1 metric="activity change, negative = inhibition" display_unit=% val=7.75
compound=COc1ccc(/C=C/C(=O)O)cc1OC metric="activity change, negative = inhibition" display_unit=% val=14.6
compound=O=C(c1csnn1)N1CCC2(CCCN(c3cccc(-c4ccccc4)c3)C2)CC1 metric="activity change, negative = inhibition" display_unit=% val=-16.4
compound=CN(C)Cc1ccccc1-c1nccc(Nc2ccc(F)cc2)n1 metric="activity change, negative = inhibition" display_unit=% val=5.52
compound="CC1(C)[C@@H](O)CC[C@]2(C)C3C(=O)C=C4C5C[C@@](C)(C(=O)O)CC[C@]5(C)CC[C@@]4(C)[C@]3(C)CC[C@@H]12 (stereo partly specified)" metric="activity change, negative = inhibition" display_unit=% val=2.84

* * *

- tested-on: Cytochrome P450 1A2 (Homo sapiens)
- assay-name: p450-cyp1a2 (AID 410)
- particulars: recombinant CYP1A2, luciferin-ME demethylation, luminescence; series mostly up to 57 µM
Records with an inconclusive call do not appear. Calls of active or inactive are those of the source. The call rests on the fitted dose curve.
Labels: 1.0 for active, 0.0 for inactive

smiles_representation=CN1C(=O)CC[C@@H]1c1cccnc1 tested_on="Cytochrome P450 1A2 (Homo sapiens)" class_assignment=0.0
smiles_representation=O=c1c(-c2ccc(Cl)cc2)nc2cncnc2n1Cc1ccccc1Cl tested_on="Cytochrome P450 1A2 (Homo sapiens)" class_assignment=1.0
smiles_representation=COc1ncc2nc(-c3cn(C)c4ccccc34)c(=O)n(CCC#N)c2n1 tested_on="Cytochrome P450 1A2 (Homo sapiens)" class_assignment=1.0
smiles_representation=CN1CCN(c2ncncc2-c2cccnc2)CC1 tested_on="Cytochrome P450 1A2 (Homo sapiens)" class_assignment=1.0
smiles_representation=CS(=O)(=O)Nc1cccc(-c2nc(NCc3ccccc3)c3ccccc3n2)c1 tested_on="Cytochrome P450 1A2 (Homo sapiens)" class_assignment=1.0
smiles_representation=CC(=O)OCC1=C(C(=O)O)N2C(=O)[C@@H](NC(=O)Cc3cccs3)[C@@H]2SC1 tested_on="Cytochrome P450 1A2 (Homo sapiens)" class_assignment=0.0
smiles_representation=Cn1cccc1C(=O)N1CCC2(CC1)CCN(c1ccccn1)CC2 tested_on="Cytochrome P450 1A2 (Homo sapiens)" class_assignment=1.0
smiles_representation=Cc1noc(C)c1-c1ccc2ncnc(NCc3cccs3)c2c1 tested_on="Cytochrome P450 1A2 (Homo sapiens)" class_assignment=1.0
smiles_representation=COC(=O)N1CCC2(CCN(Cc3ccccc3OC)CC2)CC1 tested_on="Cytochrome P450 1A2 (Homo sapiens)" class_assignment=0.0
smiles_representation=CN(Cc1ccco1)c1ncncc1-c1cccnc1 tested_on="Cytochrome P450 1A2 (Homo sapiens)" class_assignment=1.0
smiles_representation=CC(=O)N1CCC2(CCN(Cc3ccccc3)CC2)CC1 tested_on="Cytochrome P450 1A2 (Homo sapiens)" class_assignment=0.0
smiles_representation=CC(C)NC(=O)N1CCC2(CC1)CCN(C(=O)c1cnccn1)CC2 tested_on="Cytochrome P450 1A2 (Homo sapiens)" class_assignment=0.0
